Parameter: Ki. Scope: all listed entries.
Target: Human immunodeficiency virus type 1 reverse transcriptase (Human immunodeficiency virus 1)
Assay: Binding affinity against HIV reverse transcriptase (Estimated Ki)
readout-kind: Ki (nM)

{"columns": ["smiles-data", "experimental-system", "value-relation-sign", "result-value"],
 "data": [
  ["C[C@@H](/N=C(\\S)Nc1nccs1)C1CCCCC1", "Human immunodeficiency virus type 1 reverse transcriptase (Human immunodeficiency virus 1)", "=", 12000],
  ["C[C@H](/N=C(\\S)Nc1ccc(Br)cn1)C1CCCCC1", "Human immunodeficiency virus type 1 reverse transcriptase (Human immunodeficiency virus 1)", ">", 100000],
  ["S=C(NCCc1ccccn1)Nc1ccc(Br)cn1", "Human immunodeficiency virus type 1 reverse transcriptase (Human immunodeficiency virus 1)", "=", 600],
  ["C[C@H](NC(=S)Nc1ccccn1)C1CCCCC1", "Human immunodeficiency virus type 1 reverse transcriptase (Human immunodeficiency virus 1)", ">", 100000],
  ["C[C@H](NC(=S)Nc1nccs1)C1CCCCC1", "Human immunodeficiency virus type 1 reverse transcriptase (Human immunodeficiency virus 1)", ">", 100000],
  ["Fc1ccccc1CCNC(=S)Nc1ccc(Br)cn1", "Human immunodeficiency virus type 1 reverse transcriptase (Human immunodeficiency virus 1)", "=", 600],
  ["C[C@@H](/N=C(\\S)Nc1ccc(Cl)cn1)C1CCCCC1", "Human immunodeficiency virus type 1 reverse transcriptase (Human immunodeficiency virus 1)", "=", 1200],
  ["C[C@@H](/N=C(\\S)Nc1ccccn1)C1CCCCC1", "Human immunodeficiency virus type 1 reverse transcriptase (Human immunodeficiency virus 1)", ">", 100000],
  ["C[C@H](/N=C(\\S)Nc1ccc(Cl)cn1)C1CCCCC1", "Human immunodeficiency virus type 1 reverse transcriptase (Human immunodeficiency virus 1)", ">", 100000],
  ["C[C@@H](NC(=S)Nc1ccc(Br)cn1)C1CCCCC1", "Human immunodeficiency virus type 1 reverse transcriptase (Human immunodeficiency virus 1)", "=", 1100]
]}

----------
Parameter: pIC50. Scope: all listed entries.
Target: Human immunodeficiency virus type 1 reverse transcriptase (Human immunodeficiency virus 1, UniProt Q72547)
Assay: Compound was evaluated for its inhibitory activity against recombinant HIV-1 Reverse transcriptase using cell free RT inhibition assay
pIC50: −log10 of the molar value.

{"columns": ["smiles-data", "value-relation-sign", "pIC50"],
 "data": [
  ["C[C@H](/N=C(\\S)Nc1ccc(Cl)cn1)c1ccccc1", "<", 4.00],
  ["C[C@@H](/N=C(\\S)Nc1ccc(Cl)cn1)C1CCCCC1", "=", 5.85],
  ["C[C@H](/N=C(\\S)Nc1ccc(Cl)cn1)C1CCCCC1", "<", 4.00],
  ["C[C@@H](NC(=S)Nc1ccc(Cl)cn1)c1ccccc1", "=", 5.92],
  ["C[C@H](NC(=S)Nc1ccccn1)C1CCCCC1", "<", 4.00],
  ["C[C@@H](NC(=S)Nc1ccc(Br)cn1)C1CCCCC1", "=", 5.92],
  ["C[C@H](/N=C(\\S)Nc1ccc(Br)cn1)c1ccccc1", "<", 4.00],
  ["C[C@H](NC(=S)Nc1nccs1)C1CCCCC1", "<", 4.00],
  ["C[C@H](/N=C(\\S)Nc1ccc(Br)cn1)C1CCCCC1", "<", 4.00],
  ["C[C@@H](NC(=S)Nc1ccc(Br)cn1)c1ccccc1", "=", 5.80],
  ["C[C@@H](/N=C(\\S)Nc1nccs1)C1CCCCC1", "=", 4.89],
  ["C[C@@H](/N=C(\\S)Nc1ccccn1)C1CCCCC1", "<", 4.00]
]}
